tested on: MALME-3M; test: NCI60 one-dose screen; type: cell-based; conditions: Homo sapiens; MALME-3M, 10 μM, one-dose; read-out: Growth percent
resultType: activity at 10 µM (%)
Quick reminder: number only, in %, skip the unit.

Worked examples, 4 compounds total:
compound	testedOn	measureUnit	activity at 10 µM
CC[C@]12C=CCN3CC[C@@]4(c5ccc(OC)cc5N(C)[C@H]4[C@@](O)(C(=O)OC)[C@@H]1OC(=O)CCCC[P+](c1ccc(F)cc1)(c1ccc(F)cc1)c1ccc(F)cc1)[C@@H]32 [10c]	MALME-3M	%	-55.9
CC[C@]12C=CCN3CC[C@@]4(c5ccc(OC)cc5N(C)[C@H]4[C@@](O)(C(=O)OC)[C@@H]1OC(=O)CCC[P+](c1ccccc1)(c1ccccc1)c1ccccc1)[C@@H]32 [compound 3, reference compound]	MALME-3M	%	-12.4
CCC12C=CCN3CCC4(c5ccc(OC)cc5N(C)C4C(O)(C(=O)OC)C1OC(=O)c1ccc(C[P+](c4ccccc4)(c4ccccc4)c4ccccc4)cc1)C32 (centres unmarked) [compound 12]	MALME-3M	%	-95.5
CC[C@]12C=CCN3CC[C@@]4(c5ccc(OC)cc5N(C)[C@H]4[C@@](O)(C(=O)OC)[C@@H]1OC(=O)CCC[P+](c1ccc(OC)cc1)(c1ccc(OC)cc1)c1ccc(OC)cc1)[C@@H]32 [9b]	MALME-3M	%	-97.8

activity at 10 µM of CC[C@]12C=CCN3CC[C@@]4(c5ccc(OC)cc5N(C)[C@H]4[C@@](O)(C(=O)OC)[C@@H]1OC(=O)CCC[P+](c1cc(C)c(OC)c(C)c1)(c1cc(C)c(OC)c(C)c1)c1cc(C)c(OC)c(C)c1)[C@@H]32 [9e] , assay on MALME-3M, is -98.4

----------
We begin with a simple list: items and their reported activity at 10 µM.
system: MCF7; experiment: NCI60 one-dose screen; type: cell-based; conditions: Homo sapiens, MCF7, read-out: Growth percent
Give your result in % as a bare value.

Worked set:
molecule	activity at 10 µM / %
CC[C@]12C=CCN3CC[C@@]4(c5ccc(OC)cc5N(C)[C@H]4[C@@](O)(C(=O)OC)[C@@H]1OC(=O)CCC[P+](c1ccc(F)cc1)(c1ccc(F)cc1)c1ccc(F)cc1)[C@@H]32 [9c]	7.7
CC[C@]12C=CCN3CC[C@@]4(c5ccc(OC)cc5N(C)[C@H]4[C@@](O)(C(=O)OC)[C@@H]1OC(=O)CCCC[P+](c1ccc(C)cc1)(c1ccc(C)cc1)c1ccc(C)cc1)[C@@H]32 [10a]	-81.2
CC[C@]12C=CCN3CC[C@@]4(c5ccc(OC)cc5N(C)[C@H]4[C@@](O)(C(=O)OC)[C@@H]1OC(=O)CCC[P+](C1CCCCC1)(C1CCCCC1)C1CCCCC1)[C@@H]32 [9d]	-72.2

Measured activity at 10 µM, CC[C@]12C=CCN3CC[C@@]4(c5ccc(OC)cc5N(C)[C@H]4[C@@](O)(C(=O)OC)[C@@H]1OC(=O)CCCC[P+](C1CCCCC1)(C1CCCCC1)C1CCCCC1)[C@@H]32 [10d] : -64.2

Lab book: activity at 10 µM of CCC12C=CCN3CC[C@@]4(c5ccc(OC)cc5N(C)[C@H]4[C@@](O)(C(=O)OC)[C@@H]1OC(C)=O)[C@@H]32 (stereo partly drawn) [compound 2, vindoline] noted as 99

Short answer for CCC12C=CCN3CCC4(c5ccc(OC)cc5N(C)C4C(O)(C(=O)OC)C1OC(=O)CCC[P+](c1ccc(C)cc1)(c1ccc(C)cc1)c1ccc(C)cc1)C32 (stereo not drawn) [9a] : activity at 10 µM was -76.3

So, CC[C@]12C=CCN3CC[C@@]4(c5ccc(OC)cc5N(C)[C@H]4[C@@](O)(C(=O)OC)[C@@H]1OC(=O)CCCC[P+](c1ccc(OC)cc1)(c1ccc(OC)cc1)c1ccc(OC)cc1)[C@@H]32 [10b] ? Its activity at 10 µM was -82.6

// activity at 10 µM value for CC[C@]12C=CCN3CC[C@@]4(c5ccc(OC)cc5N(C)[C@H]4[C@@](O)(C(=O)OC)[C@@H]1OC(=O)CCCC[P+](c1ccccc1)(c1ccccc1)c1ccccc1)[C@@H]32 [compound 4, reference compound] : 4.69

Measured activity at 10 µM of CC[C@]12C=CCN3CC[C@@]4(c5ccc(OC)cc5N(C)[C@H]4[C@@](O)(C(=O)OC)[C@@H]1OC(=O)CCC[P+](c1ccccc1)(c1ccccc1)c1ccccc1OC)[C@@H]32 [9f] : -68.1

----------
Examples of compounds with documented activity at 10 µM follow.
test system: M14; test: NCI60 one-dose screen; type: cell-based; details: Homo sapiens, M14, read-out: Growth percent
Report as a plain number; the unit % is understood.

Looking up `CC[C@]12C=CCN3CC[C@@]4(c5ccc(OC)cc5N(C)[C@H]4[C@@](O)(C(=O)OC)[C@@H]1OC(=O)CCC[P+](c1ccc(F)cc1)(c1ccc(F)cc1)c1ccc(F)cc1)[C@@H]32` , I see its activity at 10 µM listed as 21.4

Looking up CCC12C=CCN3CC[C@@]4(c5ccc(OC)cc5N(C)[C@H]4[C@@](O)(C(=O)OC)[C@@H]1OC(C)=O)[C@@H]32 (some centres unmarked) , I found its activity at 10 µM recorded as 104

The reported activity at 10 µM of the compound CC[C@]12C=CCN3CC[C@@]4(c5ccc(OC)cc5N(C)[C@H]4[C@@](O)(C(=O)OC)[C@@H]1OC(=O)CCCC[P+](c1ccc(OC)cc1)(c1ccc(OC)cc1)c1ccc(OC)cc1)[C@@H]32 [10b] was -89.8

Sure, the documented activity at 10 µM for CC[C@]12C=CCN3CC[C@@]4(c5ccc(OC)cc5N(C)[C@H]4[C@@](O)(C(=O)OC)[C@@H]1OC(=O)CCCC[P+](C1CCCCC1)(C1CCCCC1)C1CCCCC1)[C@@H]32 [10d] is -83.5

activity at 10 µM recorded for this compound, `CC[C@]12C=CCN3CC[C@@]4(c5ccc(OC)cc5N(C)[C@H]4[C@@](O)(C(=O)OC)[C@@H]1OC(=O)CCC[P+](C1CCCCC1)(C1CCCCC1)C1CCCCC1)[C@@H]32` , is -78

----------
system: SK-MEL-2; assay: NCI60 one-dose screen; format: cell-based; conditions: Homo sapiens, SK-MEL-2, read-out: Growth percent
activity at 10 µM vs -50%: less than gives Satisfied; not less than gives Not satisfied.

molecule	testedOn	answerLabel
CC[C@]12C=CCN3CC[C@@]4(c5ccc(OC)cc5N(C)[C@H]4[C@@](O)(C(=O)OC)[C@@H]1OC(=O)CCCC[P+](c1ccccc1)(c1ccccc1)c1ccccc1)[C@@H]32 [compound 4, reference compound]	SK-MEL-2	Not satisfied

Given CCC12C=CCN3CCC4(c5ccc(OC)cc5N(C)C4C(O)(C(=O)OC)C1OC(=O)CCC[P+](c1ccc(C)cc1)(c1ccc(C)cc1)c1ccc(C)cc1)C32 (stereo not drawn) [9a] , is recorded activity at 10 µM strictly lower than -50%?
Satisfied

Please let me know if CCC12C=CCN3CC[C@@]4(c5ccc(OC)cc5N(C)[C@H]4[C@@](O)(C(=O)OC)[C@@H]1OC(C)=O)[C@@H]32 (stereo partly drawn) [compound 2, vindoline] shows activity at 10 µM below -50%.
Not satisfied

Regarding CC[C@]12C=CCN3CC[C@@]4(c5ccc(OC)cc5N(C)[C@H]4[C@@](O)(C(=O)OC)[C@@H]1OC(=O)CCCC[P+](c1ccc(C)cc1)(c1ccc(C)cc1)c1ccc(C)cc1)[C@@H]32 [10a] , kindly confirm whether its activity at 10 µM is beneath -50%.
Satisfied

Determine if CC[C@]12C=CCN3CC[C@@]4(c5ccc(OC)cc5N(C)[C@H]4[C@@](O)(C(=O)OC)[C@@H]1OC(=O)CCC[P+](c1ccc(F)cc1)(c1ccc(F)cc1)c1ccc(F)cc1)[C@@H]32 [9c] shows activity at 10 µM strictly lower than -50%.
Not satisfied

Is it true that activity at 10 µM reported for CC[C@]12C=CCN3CC[C@@]4(c5ccc(OC)cc5N(C)[C@H]4[C@@](O)(C(=O)OC)[C@@H]1OC(=O)CCCC[P+](c1ccc(OC)cc1)(c1ccc(OC)cc1)c1ccc(OC)cc1)[C@@H]32 [10b] is less than -50%?
Satisfied

----------
activity at 10 µM: recorded values
system: MOLT-4; assay: NCI60 one-dose screen; type: cell-based; settings: Homo sapiens; MOLT-4, 10 μM, one-dose; read-out: Growth percent
Numeric answer only, unit % assumed.

Check out these entries, answers already filled in.
molecule	activity at 10 µM [%]
CC[C@]12C=CCN3CC[C@@]4(c5ccc(OC)cc5N(C)[C@H]4[C@@](O)(C(=O)OC)[C@@H]1OC(=O)CCC[P+](c1ccc(OC)cc1)(c1ccc(OC)cc1)c1ccc(OC)cc1)[C@@H]32	-36.8
CC[C@]12C=CCN3CC[C@@]4(c5ccc(OC)cc5N(C)[C@H]4[C@@](O)(C(=O)OC)[C@@H]1OC(=O)CCCC[P+](c1ccc(F)cc1)(c1ccc(F)cc1)c1ccc(F)cc1)[C@@H]32 [10c]	29.1
CC[C@]12C=CCN3CC[C@@]4(c5ccc(OC)cc5N(C)[C@H]4[C@@](O)(C(=O)OC)[C@@H]1OC(=O)CCC[P+](c1ccccc1)(c1ccccc1)c1ccccc1)[C@@H]32 [compound 3, reference compound]	5.41
CC[C@]12C=CCN3CC[C@@]4(c5ccc(OC)cc5N(C)[C@H]4[C@@](O)(C(=O)OC)[C@@H]1OC(=O)CCC[P+](c1cc(C)c(OC)c(C)c1)(c1cc(C)c(OC)c(C)c1)c1cc(C)c(OC)c(C)c1)[C@@H]32	-98.3

Now, please, on to the next molecule.
For reference, reported activity at 10 µM for CCC12C=CCN3CCC4(c5ccc(OC)cc5N(C)C4C(O)(C(=O)OC)C1OC(=O)c1ccc(C[P+](c4ccccc4)(c4ccccc4)c4ccccc4)cc1)C32 (centres unmarked) stands at -53
